Target: recombinant human EGFR exon 19 deletion/C797S double mutant protein (Homo sapiens (Human), UniProt P00533, C797S/DEL746-750)
Sequence (P00533 other isoform, or with tags, fused parts or gaps C797S/del 1-668/del 746-750 limits assumed): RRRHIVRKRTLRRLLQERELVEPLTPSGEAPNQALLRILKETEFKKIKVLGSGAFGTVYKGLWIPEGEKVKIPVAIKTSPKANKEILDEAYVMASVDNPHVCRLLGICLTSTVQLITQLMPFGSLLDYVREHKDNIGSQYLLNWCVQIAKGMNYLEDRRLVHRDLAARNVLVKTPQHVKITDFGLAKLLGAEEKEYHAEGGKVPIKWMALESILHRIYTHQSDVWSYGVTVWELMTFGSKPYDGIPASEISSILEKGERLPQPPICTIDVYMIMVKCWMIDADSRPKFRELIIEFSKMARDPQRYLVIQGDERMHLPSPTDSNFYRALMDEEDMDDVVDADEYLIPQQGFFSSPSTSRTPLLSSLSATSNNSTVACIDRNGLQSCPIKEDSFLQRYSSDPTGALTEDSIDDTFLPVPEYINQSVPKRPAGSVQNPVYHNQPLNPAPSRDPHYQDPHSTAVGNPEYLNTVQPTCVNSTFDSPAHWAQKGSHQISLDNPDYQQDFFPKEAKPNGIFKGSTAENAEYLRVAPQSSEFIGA
Assay: Biological Activity Assay C: biochemical assay against EGFR exon 19 deletion/C797S protein (EGFR d19/CS)
QUANTITY: IC50 (nM)
One number for each entry, in nM.

A selection of reference data follows.
[
  {
    "COMPOUND": "Cn1cc(-c2cc3c(-c4cn(C5CS(=O)(=O)C5)nc4-c4ccc(F)cc4)ncnc3o2)nn1 [Example 244]",
    "IC50 [nM]": 0.55
  },
  {
    "COMPOUND": "N#CCCn1cc(-c2ncnc3oc(-c4cccnc4)cc23)c(-c2ccc(F)cc2)n1 [Example 268]",
    "IC50 [nM]": 0.104
  },
  {
    "COMPOUND": "OCCCCn1nc(-c2ccc(F)cc2)c(-c2ccnc3[nH]c(-c4ccccc4)cc23)n1 [Example 23]",
    "IC50 [nM]": 0.633
  },
  {
    "COMPOUND": "N=S1(=O)CCC(n2cc(-c3ncnc4oc(-c5ccccc5)cc34)c(-c3ccc(F)cc3)n2)C1 (stereo not shown) [Example 161]",
    "IC50 [nM]": 0.14
  },
  {
    "COMPOUND": "Cc1cnc(-c2cc3c(-c4cn(C5CS(=O)(=O)C5)nc4-c4ccc(F)cc4)ncnc3o2)o1 [Example 234]",
    "IC50 [nM]": 3.6
  },
  {
    "COMPOUND": "Fc1ccc(-c2nn([C@@H]3CCOC3)cc2-c2ncnc3oc(-c4ccccc4)cc23)cc1 (single isomer, unassigned) [Example 90]",
    "IC50 [nM]": 0.24
  }
]

Pending compound:
Asked: Which IC50 value is on record for CC(=O)NCCCn1cc(-c2ncnc3oc(-c4ccccc4)cc23)c(-c2ccc(F)cc2)n1 [Example 141] ?
Given back: 0.25
